Settings: 305.65 K; 101 kPa; Liquid
The following compounds are shown together with reported mass density values.
Numeric only. Scale: kg/m3

Below, 4 compounds whose answers are already recorded.
CC(C)CC(C)(C)C = 681.542
Cc1ccccc1 = 855.175
CC(C)(C)O = 772.623
c1ccccc1 = 865.49

Now for a further compound.
(Q) Which measured mass density value corresponds to CCc1ccccc1 ?
(A) 855.837

====

Conditions: 295.65 K; 101 kPa; Liquid; Single path-length method
observationType: speed of sound (m/s)
Numeric only. Scale: m/s

Below, 3 compounds whose answers are already recorded.
CCc1ccccc1 = 1328.9
CC(C)CC(C)(C)C = 1092.7
Cc1ccccc1 = 1314.3

(Q) Which measured speed of sound value corresponds to c1ccccc1 ?
(A) 1309.9

====

Conditions: 313.15 K; 101 kPa; Liquid
Classify: class 1 when mass density is strictly less than 800 kg/m3; class 0 when mass density is not.

Some solved cases for reference:
Cc1ccccc1 = class 0
c1ccccc1 = class 0
CC(C)(C)O = class 1
CCc1ccccc1 = class 0

Continue with the next compound.
(Q) In the record for CC(C)CC(C)(C)C , is mass density less than 800 kg/m3?
(A) class 1

====

Settings: 288.15 K; 101 kPa; Liquid
The following molecules are shown together with reported mass density values.
Numeric only. Scale: kg/m3

COC(C)(C)C = 744.861
CC(C)CC(C)(C)C = 695.948
CCc1ccccc1 = 871.245

(Q) Which measured mass density value corresponds to Cc1ccccc1 ?
(A) 871.457

(Q) Which measured mass density value corresponds to c1ccccc1 ?
(A) 884.183

====

The following compounds are shown together with reported speed of sound values.
Conditions: 308.15 K; 101 kPa; Liquid; Single path-length method
Numeric only. Scale: m/s

Below, 3 compounds whose answers are already recorded.
CCc1ccccc1 = 1276.8
CC(C)(C)O = 1077.7
CC(C)CC(C)(C)C = 1040.5

(Q) Which measured speed of sound value corresponds to Cc1ccccc1 ?
(A) 1260.5

(Q) Which measured speed of sound value corresponds to c1ccccc1 ?
(A) 1252.1

====

The following compounds are shown together with reported speed of sound values.
Settings: 323.15 K; 101 kPa; Liquid; Single path-length method
Numeric only. Scale: m/s

CCc1ccccc1 = 1216.3
Cc1ccccc1 = 1196.6
c1ccccc1 = 1184.6
CC(C)CC(C)(C)C = 979.25

(Q) Which measured speed of sound value corresponds to CC(C)(C)O ?
(A) 1014.8

====

Conditions: 298.15 K; 101 kPa; Liquid; Single path-length method
Numbers after ± are expanded uncertainties.
observationType: speed of sound
Number first, unit second: that is the form wanted.

Cc1ccccc1 = 1303.4 ± 2.1 m/s
CC(C)CC(C)(C)C = 1082.2 ± 2.1 m/s
c1ccccc1 = 1298.3 ± 2.1 m/s

(Q) Which measured speed of sound value corresponds to CCc1ccccc1 ?
(A) 1318.4 ± 2.1 m/s

====

Conditions: 310.65 K; 101 kPa; Liquid
observationType: mass density (kg/m3)
Numeric only. Scale: kg/m3

Below, 4 molecules whose answers are already recorded.
CC(C)CC(C)(C)C [2,2,4-trimethylpentane] = 677.373
CC(C)(C)O [2-methylpropan-2-ol] = 767.391
CCc1ccccc1 [ethylbenzene] = 851.407
Cc1ccccc1 [toluene] = 850.494

Now for a further molecule.
(Q) Which measured mass density value corresponds to c1ccccc1 [benzene] ?
(A) 860.118

====

The following compounds are shown together with reported speed of sound values.
Settings: 313.15 K; 101 kPa; Liquid; Single path-length method
Numeric only. Scale: m/s

Below, 4 compounds whose answers are already recorded.
CCc1ccccc1 = 1256.3
CC(C)(C)O = 1056.7
c1ccccc1 = 1229.3
Cc1ccccc1 = 1239.2

Now for a further compound.
(Q) Which measured speed of sound value corresponds to CC(C)CC(C)(C)C ?
(A) 1019.9

====

The following molecules are shown together with reported mass density values.
Details: 320.65 K; 101 kPa; Liquid
Numbers after ± are expanded uncertainties.
Number first, unit second: that is the form wanted.

Below, 2 molecules whose answers are already recorded.
CCc1ccccc1 = 842.518 ± 0.41 kg/m3
CC(C)CC(C)(C)C = 668.954 ± 0.67 kg/m3

(Q) Which measured mass density value corresponds to CC(C)(C)O ?
(A) 756.633 ± 0.54 kg/m3

(Q) Which measured mass density value corresponds to c1ccccc1 ?
(A) 849.331 ± 0.4 kg/m3

(Q) Which measured mass density value corresponds to Cc1ccccc1 ?
(A) 841.075 ± 0.41 kg/m3

====

Settings: 323.15 K; 101 kPa; Liquid
Classify: true when mass density is strictly less than 800 kg/m3; false when mass density is not.

(Q) In the record for CCc1ccccc1 , is mass density less than 800 kg/m3?
(A) false

(Q) In the record for Cc1ccccc1 , is mass density less than 800 kg/m3?
(A) false

(Q) In the record for CC(C)(C)O , is mass density less than 800 kg/m3?
(A) true

(Q) In the record for CC(C)CC(C)(C)C , is mass density less than 800 kg/m3?
(A) true

(Q) In the record for c1ccccc1 , is mass density less than 800 kg/m3?
(A) false

====

The following molecules are shown together with reported mass density values.
Conditions: 318.15 K; 101 kPa; Liquid
Numeric only. Scale: kg/m3

Below, 4 molecules whose answers are already recorded.
c1ccccc1 = 852.032
Cc1ccccc1 = 843.437
CC(C)(C)O = 759.355
CC(C)CC(C)(C)C = 671.069

Now for a further molecule.
(Q) Which measured mass density value corresponds to CCc1ccccc1 ?
(A) 844.741

====

Conditions: 315.65 K; 101 kPa; Liquid
Classify as follows. Reported mass density greater than or equal to 800 kg/m3: met. Reported mass density below: not met.

Some solved cases for reference:
Cc1ccccc1 [toluene] = met
c1ccccc1 [benzene] = met
CC(C)(C)O [2-methylpropan-2-ol] = not met
CCc1ccccc1 [ethylbenzene] = met

Continue with the next compound.
(Q) For this compound, is measured mass density 800 kg/m3 or higher? CC(C)CC(C)(C)C [2,2,4-trimethylpentane]
(A) not met

====

Details: 305.65 K; 101 kPa; Liquid; Single path-length method
Numbers after ± are expanded uncertainties.
observationType: speed of sound
Number first, unit second: that is the form wanted.

CCc1ccccc1 = 1287.1 ± 2.1 m/s
CC(C)(C)O = 1088.3 ± 2.1 m/s
Cc1ccccc1 = 1271.2 ± 2.1 m/s
CC(C)CC(C)(C)C = 1050.9 ± 2.1 m/s

Now for a further molecule.
(Q) Which measured speed of sound value corresponds to c1ccccc1 ?
(A) 1263.6 ± 2.1 m/s

====

Conditions: 300.65 K; 101 kPa; Liquid
The following compounds are shown together with reported mass density values.
Numeric only. Scale: kg/m3

Below, 3 compounds whose answers are already recorded.
CCc1ccccc1 = 860.256
Cc1ccccc1 = 859.845
c1ccccc1 = 870.847

(Q) Which measured mass density value corresponds to COC(C)(C)C ?
(A) 731.766

(Q) Which measured mass density value corresponds to CC(C)CC(C)(C)C ?
(A) 685.687

====

Conditions: 293.15 K; 101 kPa; Liquid
The following molecules are shown together with reported mass density values.
Numeric only. Scale: kg/m3

CCc1ccccc1 = 866.856
CC(C)CC(C)(C)C = 691.861
Cc1ccccc1 = 866.823

(Q) Which measured mass density value corresponds to COC(C)(C)C ?
(A) 739.654

(Q) Which measured mass density value corresponds to c1ccccc1 ?
(A) 878.856

====

Details: 320.65 K; 101 kPa; Liquid; Single path-length method
observationType: speed of sound (m/s)
Numeric only. Scale: m/s

Below, 2 compounds whose answers are already recorded.
CC(C)CC(C)(C)C [2,2,4-trimethylpentane] = 989.37
CC(C)(C)O [2-methylpropan-2-ol] = 1025.2

(Q) Which measured speed of sound value corresponds to CCc1ccccc1 [ethylbenzene] ?
(A) 1226.1

(Q) Which measured speed of sound value corresponds to Cc1ccccc1 [toluene] ?
(A) 1207.3

(Q) Which measured speed of sound value corresponds to c1ccccc1 [benzene] ?
(A) 1195.5

====

Conditions: 308.15 K; 101 kPa; Liquid
Numbers after ± are expanded uncertainties.
observationType: mass density

Below, 4 molecules whose answers are already recorded.
CC(C)CC(C)(C)C = 679.459 ± 0.65 kg/m3
Cc1ccccc1 = 852.838 ± 0.39 kg/m3
CCc1ccccc1 = 853.622 ± 0.39 kg/m3
c1ccccc1 = 862.805 ± 0.38 kg/m3

Now for a further molecule.
(Q) Which measured mass density value corresponds to CC(C)(C)O ?
(A) 770.015 ± 0.52 kg/m3

Data provenance: the NIST ThermoML archive (doi:10.1007/s10765-007-0223-x)
